Molecular target: SHP2-C SH2
Test: SH2 binding enrichment of the phosphorylated peptide, bacterial display (enrichment ratio); higher = better substrate or ligand; peptides without Tyr show the background
# key: entry, value: SH2 binding enrichment
The answer should be written as a number, with no unit following it.

Please review the following examples before continuing.
ILILKYPIEHG [ACTA1_Y71_T68I]: 1.72
IPTPAYQSLPA [PDCD6IP_Y727_S730L]: 0.876
QFNMQYSSSAA [ERBB2IP_Y981_I979M_YF]: 0.527
GVRLYYRVMES [RB1_Y454]: 0.829

The recorded SH2 binding enrichment with SHP2-C SH2 for ERLLDYTRTVQ [INPP5E_Y439] was 0.584

The recorded SH2 binding enrichment with SHP2-C SH2 for VSSPKYGGDDE [TMCC2_Y473_S475G] was 0.54

The recorded SH2 binding enrichment with SHP2-C SH2 for EQYELHCEMGS [CBL_Y371_Y371H] was 0.859

The recorded SH2 binding enrichment with SHP2-C SH2 for HEKFLYFLPAS [DYNC2H1_Y346] was 0.868

The recorded SH2 binding enrichment with SHP2-C SH2 for MTFQNYGQALF [FAM20C_Y279] was 0.783

The recorded SH2 binding enrichment with SHP2-C SH2 for TEAGNYKLCFD [TMED1_Y103_D102N] was 0.538

The recorded SH2 binding enrichment with SHP2-C SH2 for VAVVQYSGMGQ [COL6A1_Y878_T881M] was 0.927

The recorded SH2 binding enrichment with SHP2-C SH2 for EEGNPYYSGAR [MCCC2_Y520_S523G] was 0.538

The recorded SH2 binding enrichment with SHP2-C SH2 for QPSALYEDRFL [ASS1_Y83_S79P_YF] was 0.684

The recorded SH2 binding enrichment with SHP2-C SH2 for MAYDRYAAICS [OR8H2_Y123_H120Y] was 0.956

* * *

Test system: c-Abl (mouse)
Assay: phosphorylation enrichment, bacterial display (enrichment ratio); higher = better substrate or ligand; peptides without Tyr show the background
# key: entry, value: phosphorylation enrichment
The answer should be written as a number, with no unit following it.

PSSNLYYRWLT [CNGA3_Y168]: 7.69
HCHEGYILHGA [SVEP1_Y2921]: 1.61

Recorded phosphorylation enrichment (sequence KLVDVYVNDAF [PGK1_Y161_G158V] ): 0.387

Recorded phosphorylation enrichment (sequence RIAFQYGVTDL [MYBPC3_Y340] ): 0.992

Recorded phosphorylation enrichment (sequence EAKENYGKTLK [CHL1_Y291_T287A] ): 0.495

Recorded phosphorylation enrichment (sequence GVIKEYQIRQV [USH2A_Y3623] ): 0.422

Recorded phosphorylation enrichment (sequence IKSSIYDNRKE [ARAP2_Y380] ): 0.518

Recorded phosphorylation enrichment (sequence PGAPAYRVLME [MYO5A_Y1245] ): 1.52

Recorded phosphorylation enrichment (sequence PPPPAYDDVAQ [TNK2_Y635] ): 0.806

Recorded phosphorylation enrichment (sequence KIKGRYEKCEP [KRT26_Y119_W118R] ): 1.25

Recorded phosphorylation enrichment (sequence NGSKAYAYVHF [PABPC5_Y147_G146A] ): 0.634

Recorded phosphorylation enrichment (sequence FGSRLYKFAFK [FANCD2_Y458_L456R_YF] ): 0.456

Recorded phosphorylation enrichment (sequence FFRDGHMPRQF [GSS_Y270_Y270H_YF] ): 0.505

Recorded phosphorylation enrichment (sequence VYSSDYFSFVL [USP24_Y2138] ): 2.92

* * *

Biological target: SHP2-C SH2
Test: SH2 binding enrichment of the phosphorylated peptide, bacterial display (enrichment ratio); higher = better substrate or ligand; peptides without Tyr show the background
Measured parameter: SH2 binding enrichment
The answer should be written as a number, with no unit following it.

Please review the following examples before continuing.
DLEKTYNTFRS [B4GALNT2_Y538_A533D_YF]: 0.629
EWLRRYLENGK [HLA-A_Y195]: 0.757
SLGKGYSDGGC [MC4R_Y35]: 0.678
TEAEPYYRSLR [NPHS1_Y1138]: 0.864
GTSLIYWTLFT [G6PC3_Y214]: 0.652
RARPPYTVAAD [ANKZF1_Y572]: 1.14
KAIMTYVSSFF [ACTN4_Y260_YF]: 0.878
LYEDCYLLGTS [ASS1_Y87_R86C]: 0.314
LIDTVYSSSSA [OR4C12_Y71]: 0.734
QVKEQYQDVPM [PKP2_Y659_K654Q]: 0.752

Shift focus to the following entry.
Recorded SH2 binding enrichment (sequence MGCVNYGAYIN [GLB1_Y485_R482C] ): 0.606

* * *

System: c-Src
Assay: phosphorylation enrichment, bacterial display (enrichment ratio); higher = better substrate or ligand; peptides without Tyr show the background
Measured parameter: phosphorylation enrichment
The answer should be written as a number, with no unit following it.

AELVPYFMEHH [PTPN11_Y80_Q79P_YF]: 0.883
LKTNWYNNGKD [DNMT3B_Y404_C403W]: 0.838

Recorded phosphorylation enrichment (sequence ANNPLYKEVTS [ITGB3_Y773_A776V] ): 0.467

Recorded phosphorylation enrichment (sequence ILILKYPIEHG [ACTA1_Y71_T68I] ): 0.491

Recorded phosphorylation enrichment (sequence FPPDGYSRHCE [CTNND1_Y213_Y217C_YF] ): 0.376

Recorded phosphorylation enrichment (sequence RLNWIYYKDQT [RS1_Y165] ): 0.616

Recorded phosphorylation enrichment (sequence PVKDPYVMFPQ [PLEKHG2_Y489] ): 2.43

* * *

# key: entry, value: SH2 binding enrichment
Biological target: SHP2-C SH2;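 further: peptide library displayed on the E. coli surface as eCPX fusions, selected cells deep-sequenced, score is each peptide's frequency after selection divided by its frequency in the input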
Experiment: SH2 binding enrichment of the phosphorylated peptide, bacterial display (enrichment ratio); higher = better substrate or ligand; peptides without Tyr show the background

Please review the following examples before continuing.
LARDMYDKEFF [MET_Y1230_YF]: 0.643
KVGNGYISAAE [CALM2_Y100_D96V]: 0.546
QLGLQYSQGLV [EIF2B4_Y214_R209Q]: 0.721
KPPPTYESEEE [BRD4_Y599]: 0.719

Recorded SH2 binding enrichment (sequence PESILYRKFTT [NTRK1_Y701] ): 0.81

Recorded SH2 binding enrichment (sequence DMGAQYAAASR [ARID1B_Y483_P488R] ): 0.553

Recorded SH2 binding enrichment (sequence SYSGEYGSGGG [ZG16_Y30_G32S] ): 0.794

Recorded SH2 binding enrichment (sequence EQSNPYMVLDI [ROCK2_Y1197] ): 0.654

Recorded SH2 binding enrichment (sequence FLNSSYINIST [IL23R_Y178_T175N_YF] ): 1.69

Recorded SH2 binding enrichment (sequence DSFWSYCNAVA [SLC20A2_Y436_S434W_YF] ): 0.637

* * *

# key: entry, value: phosphorylation enrichment
Target: Fes (UniProt P07332)
Sequence (P07332 whole entry, looked up): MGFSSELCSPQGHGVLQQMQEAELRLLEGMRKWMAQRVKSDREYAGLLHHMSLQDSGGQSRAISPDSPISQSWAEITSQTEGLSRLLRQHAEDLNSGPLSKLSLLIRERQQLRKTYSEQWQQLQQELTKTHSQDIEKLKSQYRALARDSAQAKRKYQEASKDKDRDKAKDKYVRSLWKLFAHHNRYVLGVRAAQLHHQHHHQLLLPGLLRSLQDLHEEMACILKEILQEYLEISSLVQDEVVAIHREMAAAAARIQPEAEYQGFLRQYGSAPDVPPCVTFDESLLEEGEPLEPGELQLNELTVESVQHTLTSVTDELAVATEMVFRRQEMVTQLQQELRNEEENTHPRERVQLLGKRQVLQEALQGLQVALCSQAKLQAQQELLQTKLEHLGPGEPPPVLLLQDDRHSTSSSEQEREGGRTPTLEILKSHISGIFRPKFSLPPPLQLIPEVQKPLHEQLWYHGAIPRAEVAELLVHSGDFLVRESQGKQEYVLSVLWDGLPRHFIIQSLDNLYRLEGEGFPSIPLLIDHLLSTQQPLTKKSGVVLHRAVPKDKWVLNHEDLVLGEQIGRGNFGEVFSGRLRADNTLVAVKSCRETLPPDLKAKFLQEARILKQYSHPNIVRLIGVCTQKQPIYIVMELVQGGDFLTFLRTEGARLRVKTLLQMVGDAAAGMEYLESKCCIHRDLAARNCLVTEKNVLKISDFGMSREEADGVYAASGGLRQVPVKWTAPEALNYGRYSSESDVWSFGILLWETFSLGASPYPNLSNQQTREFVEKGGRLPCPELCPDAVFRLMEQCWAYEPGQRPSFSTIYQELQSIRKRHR
Experiment: phosphorylation enrichment, bacterial display (enrichment ratio); higher = better substrate or ligand; peptides without Tyr show the background
The answer should be written as a number, with no unit following it.

Please review the following examples before continuing.
GRLFAYPDTHC [CAT_Y358_R363C]: 1.05
ETELPYQELQG [TYROBP_Y91_S89L]: 1.18
HCHEGYILHGA [SVEP1_Y2921]: 1.78
PYADPYYDYEI [ZC3H18_Y371]: 2.33
LPVHFYGHVEH [PYGM_Y204]: 1.74

Recorded phosphorylation enrichment (sequence RTLIRYANLSN [BEST1_Y131_G135S] ): 1.02

Recorded phosphorylation enrichment (sequence TFEYRYLEDQD [CNOT3_Y746_R750Q] ): 1.15

Recorded phosphorylation enrichment (sequence DFLEKYFKFGC [NNMT_Y24_S29C_YF] ): 1.38

Recorded phosphorylation enrichment (sequence ESKAGYRVPRS [CLDN7_Y195] ): 0.583

Recorded phosphorylation enrichment (sequence EAGKVYLKAAM [CBFB_Y96_P100A] ): 1.26

Recorded phosphorylation enrichment (sequence DEDYLYREELA [POR_Y575] ): 1.36

Recorded phosphorylation enrichment (sequence PVKDPYVMFPQ [PLEKHG2_Y489] ): 1.03

Recorded phosphorylation enrichment (sequence FHLGKYLQEVL [KLB_Y910_Y906H_YF] ): 1.52

Recorded phosphorylation enrichment (sequence PGQAAYQKVVA [HBB_Y131_V127G] ): 0.831

* * *

Target: FGFR1 (UniProt P11362)
Sequence (P11362 whole entry, looked up): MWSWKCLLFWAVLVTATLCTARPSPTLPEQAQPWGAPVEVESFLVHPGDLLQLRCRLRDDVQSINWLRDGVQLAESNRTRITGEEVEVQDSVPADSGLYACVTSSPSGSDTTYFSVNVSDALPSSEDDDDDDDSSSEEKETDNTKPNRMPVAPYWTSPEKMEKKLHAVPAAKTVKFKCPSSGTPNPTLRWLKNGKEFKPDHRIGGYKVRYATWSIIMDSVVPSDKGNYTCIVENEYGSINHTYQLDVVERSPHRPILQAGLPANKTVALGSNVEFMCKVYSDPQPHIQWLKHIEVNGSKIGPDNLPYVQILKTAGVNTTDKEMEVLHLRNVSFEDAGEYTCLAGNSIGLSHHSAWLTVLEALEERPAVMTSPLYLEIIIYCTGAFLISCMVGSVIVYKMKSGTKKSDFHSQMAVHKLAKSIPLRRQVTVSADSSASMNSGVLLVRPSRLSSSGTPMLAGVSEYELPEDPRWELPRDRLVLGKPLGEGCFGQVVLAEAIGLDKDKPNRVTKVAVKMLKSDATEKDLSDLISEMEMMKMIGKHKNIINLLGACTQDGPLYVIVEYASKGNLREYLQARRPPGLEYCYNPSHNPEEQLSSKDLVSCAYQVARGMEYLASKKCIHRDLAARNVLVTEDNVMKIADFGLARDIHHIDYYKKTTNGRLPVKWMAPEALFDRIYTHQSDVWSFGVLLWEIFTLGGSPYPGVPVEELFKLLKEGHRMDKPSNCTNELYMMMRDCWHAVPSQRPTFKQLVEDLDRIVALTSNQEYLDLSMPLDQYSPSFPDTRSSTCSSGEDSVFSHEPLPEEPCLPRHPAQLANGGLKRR
Test: phosphorylation enrichment, bacterial display (enrichment ratio); higher = better substrate or ligand; peptides without Tyr show the background
# phosphorylation enrichment >= 0.5 gives 1 (yes), anything below gives 0 (no)

QKPLGYFRVNL [GALE_Y104_D103G_YF]: 1 (yes)

query: Is phosphorylation enrichment for APVEDYGGGGG [B4GALT6_Y382_I379V] at or above 0.5?
result: 0 (no)

query: Is phosphorylation enrichment for GREEFYVHYVG [KAT8_Y90] at or above 0.5?
result: 1 (yes)

query: Is phosphorylation enrichment for NPQKSCFIRLY [WAS_Y83_Y83C] at or above 0.5?
result: 0 (no)

These data points were gathered from the supplement of paper PMC10065799.
